Ki, cathepsin B (Capra hircus, UniProt A0A452G2V1): measured values
Response body: numeric value in µM, unit text excluded.

These solved cases illustrate the format of a correct answer.
COc1cccc(C2CC(c3ccccc3)=NN2C(N)=O)c1 (centres unmarked) : 34.9
NC(=O)N/N=C(\C=C\c1ccccc1Cl)c1ccccc1 : 2.7
NC(=O)N1N=C(c2ccccc2)CC1c1ccccc1 (centres unmarked) : 52.4
NC(=O)N/N=C(/C=C/c1ccccc1Cl)c1ccccc1 : 0.207
NC(=O)N1N=C(c2ccccc2)CC1c1ccc(Cl)cc1 (centres unmarked) : 39

Request body: readout Ki, system cathepsin B (Capra hircus, UniProt A0A452G2V1), query COc1ccc(C2CC(c3ccccc3)=NN2C(N)=O)cc1 (centres unmarked) . Return the value.
69.3

What would you report for NC(=O)N/N=C(/C=C/c1cccc([N+](=O)[O-])c1)c1ccccc1 ?
41.3

What would you report for NC(=O)N1N=C(c2ccccc2)CC1c1cccc(Cl)c1 (centres unmarked) ?
82.7

What would you report for NC(=O)N1N=C(c2ccccc2)CC1c1cccc([N+](=O)[O-])c1 (centres unmarked) ?
58.1

What would you report for NC(=O)N/N=C(/C=C/c1ccc(Cl)cc1)c1ccccc1 ?
27.3

What would you report for NC(=O)N1N=C(c2ccccc2)CC1c1ccc([N+](=O)[O-])cc1 (centres unmarked) ?
39

----------
Measured pKi, listed per entry.
# Target or test system: cathepsin L (Capra hircus, UniProt A0A452FFI6)
Just so you know, pKi here is -log10 of the concentration in molar units; reply with that number alone.

These solved cases illustrate the format of a correct answer.
NC(=O)N/N=C(/C=C/c1cccc([N+](=O)[O-])c1)c1ccccc1 : 8.69
NC(=O)N1N=C(c2ccccc2)CC1c1ccccc1Cl (stereo not shown) : 7.50
NC(=O)N1N=C(c2ccccc2)CC1c1ccccc1 (stereo not shown) : 7.06
NC(=O)N1N=C(c2ccccc2)CC1c1cccc(Cl)c1 (stereo not shown) : 7.30
NC(=O)N/N=C(/C=C/c1ccc(Cl)cc1)c1ccccc1 : 8.93

Request body: readout pKi, system cathepsin L (Capra hircus, UniProt A0A452FFI6), query NC(=O)N1N=C(c2ccccc2)CC1c1ccc([N+](=O)[O-])cc1 (stereo not shown) . Return the value.
7.77

What would you report for NC(=O)N1N=C(c2ccccc2)CC1c1ccc(Cl)cc1 (stereo not shown) ?
7.48

What would you report for COc1ccc(C2CC(c3ccccc3)=NN2C(N)=O)cc1 (stereo not shown) ?
9.30

What would you report for COc1cccc(C2CC(c3ccccc3)=NN2C(N)=O)c1 (stereo not shown) ?
8.09

What would you report for O=C(/C=C/c1ccccc1Cl)c1ccccc1 ?
8.22
